target: human NR1/NR2A (Homo sapiens (Human), UniProt Q05586+Q12879); assay: NR2A antagonist activity: calcium influx (Fluo-4) assay in HEK293 cells; format: cell-based
Sequence (Q12879 23-1464, other chains not shown): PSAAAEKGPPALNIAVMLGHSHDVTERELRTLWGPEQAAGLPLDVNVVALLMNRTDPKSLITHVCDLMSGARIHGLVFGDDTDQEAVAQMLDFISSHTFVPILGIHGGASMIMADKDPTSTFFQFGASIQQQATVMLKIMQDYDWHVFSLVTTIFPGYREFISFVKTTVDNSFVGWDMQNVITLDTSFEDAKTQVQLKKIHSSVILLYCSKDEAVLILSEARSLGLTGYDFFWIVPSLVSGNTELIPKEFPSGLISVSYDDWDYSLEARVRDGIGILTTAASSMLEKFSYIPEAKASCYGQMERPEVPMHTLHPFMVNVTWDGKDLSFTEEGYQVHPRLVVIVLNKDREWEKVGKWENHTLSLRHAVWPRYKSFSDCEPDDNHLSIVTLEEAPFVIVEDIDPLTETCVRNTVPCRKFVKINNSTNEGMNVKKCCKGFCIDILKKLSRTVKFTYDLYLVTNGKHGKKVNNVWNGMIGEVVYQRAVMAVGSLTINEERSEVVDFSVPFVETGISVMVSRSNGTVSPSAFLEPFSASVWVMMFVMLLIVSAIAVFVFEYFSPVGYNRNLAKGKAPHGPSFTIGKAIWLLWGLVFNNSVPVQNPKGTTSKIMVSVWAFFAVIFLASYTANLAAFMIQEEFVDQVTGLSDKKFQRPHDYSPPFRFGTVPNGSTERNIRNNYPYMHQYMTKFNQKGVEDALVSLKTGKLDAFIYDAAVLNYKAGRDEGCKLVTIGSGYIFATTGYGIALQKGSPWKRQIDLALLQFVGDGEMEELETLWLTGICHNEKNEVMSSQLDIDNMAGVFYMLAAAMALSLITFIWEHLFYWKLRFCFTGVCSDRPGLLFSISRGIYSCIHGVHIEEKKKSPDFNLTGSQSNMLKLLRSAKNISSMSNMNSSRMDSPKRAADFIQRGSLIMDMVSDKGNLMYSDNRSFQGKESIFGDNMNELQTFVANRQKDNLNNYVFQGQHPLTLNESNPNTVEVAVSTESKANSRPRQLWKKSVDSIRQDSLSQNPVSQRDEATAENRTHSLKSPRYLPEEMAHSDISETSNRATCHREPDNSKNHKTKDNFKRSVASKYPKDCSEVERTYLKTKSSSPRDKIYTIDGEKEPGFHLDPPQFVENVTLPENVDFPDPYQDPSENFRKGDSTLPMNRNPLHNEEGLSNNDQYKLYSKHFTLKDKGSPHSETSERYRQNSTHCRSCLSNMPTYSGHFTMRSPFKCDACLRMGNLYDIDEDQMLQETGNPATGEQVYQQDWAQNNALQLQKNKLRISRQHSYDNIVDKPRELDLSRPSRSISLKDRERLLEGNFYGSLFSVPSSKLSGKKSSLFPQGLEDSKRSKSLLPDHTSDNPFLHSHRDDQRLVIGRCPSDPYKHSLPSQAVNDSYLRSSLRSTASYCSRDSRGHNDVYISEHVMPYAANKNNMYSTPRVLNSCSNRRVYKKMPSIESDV
readout-kind: IC50

Data point: FC(F)(CN1CCC(Nc2ncnc3[nH]ccc23)CC1)c1ccccn1 ; IC50 = > 10 µM

====

Target: human NR1/NR2B (Homo sapiens (Human), UniProt Q05586+Q13224)
Sequence (Q13224 27-1484, other chains not shown): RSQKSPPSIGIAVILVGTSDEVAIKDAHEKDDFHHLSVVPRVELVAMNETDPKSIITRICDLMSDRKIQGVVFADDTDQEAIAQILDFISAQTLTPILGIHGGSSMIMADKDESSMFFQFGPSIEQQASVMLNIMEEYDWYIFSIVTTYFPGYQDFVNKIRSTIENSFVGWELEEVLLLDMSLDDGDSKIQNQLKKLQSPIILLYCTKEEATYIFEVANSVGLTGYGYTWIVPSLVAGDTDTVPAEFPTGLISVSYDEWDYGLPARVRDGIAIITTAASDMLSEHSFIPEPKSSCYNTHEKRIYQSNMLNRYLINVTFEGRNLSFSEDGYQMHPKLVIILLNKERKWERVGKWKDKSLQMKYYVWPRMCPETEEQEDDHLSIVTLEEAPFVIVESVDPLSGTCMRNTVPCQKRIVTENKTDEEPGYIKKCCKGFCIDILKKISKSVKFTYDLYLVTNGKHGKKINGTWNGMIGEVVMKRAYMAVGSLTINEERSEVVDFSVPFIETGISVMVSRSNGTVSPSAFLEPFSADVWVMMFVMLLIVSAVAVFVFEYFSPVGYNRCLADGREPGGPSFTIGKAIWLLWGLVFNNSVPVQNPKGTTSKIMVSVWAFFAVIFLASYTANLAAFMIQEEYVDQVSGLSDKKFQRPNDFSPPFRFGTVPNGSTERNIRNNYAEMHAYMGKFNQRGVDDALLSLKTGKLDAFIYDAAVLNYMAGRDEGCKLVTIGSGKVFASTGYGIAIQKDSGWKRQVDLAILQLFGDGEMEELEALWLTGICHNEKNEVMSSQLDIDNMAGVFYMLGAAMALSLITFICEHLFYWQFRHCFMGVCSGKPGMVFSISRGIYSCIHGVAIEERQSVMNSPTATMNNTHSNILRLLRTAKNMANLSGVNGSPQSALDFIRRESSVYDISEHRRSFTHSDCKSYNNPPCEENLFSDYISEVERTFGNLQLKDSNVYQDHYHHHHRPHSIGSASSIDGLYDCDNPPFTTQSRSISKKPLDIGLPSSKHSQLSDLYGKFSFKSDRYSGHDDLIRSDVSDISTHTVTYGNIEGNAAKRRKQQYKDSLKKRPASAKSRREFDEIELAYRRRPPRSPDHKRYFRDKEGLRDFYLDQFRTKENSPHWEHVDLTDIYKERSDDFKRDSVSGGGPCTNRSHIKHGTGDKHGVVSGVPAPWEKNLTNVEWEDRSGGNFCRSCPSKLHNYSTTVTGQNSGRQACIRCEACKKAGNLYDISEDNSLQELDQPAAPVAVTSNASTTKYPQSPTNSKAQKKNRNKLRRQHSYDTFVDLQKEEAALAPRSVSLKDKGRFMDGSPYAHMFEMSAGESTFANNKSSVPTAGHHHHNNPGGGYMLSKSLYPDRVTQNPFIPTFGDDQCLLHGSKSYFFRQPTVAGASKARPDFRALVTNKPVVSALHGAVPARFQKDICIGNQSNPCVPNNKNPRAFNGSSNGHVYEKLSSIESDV
Experiment: NR2B antagonist activity: calcium influx (Fluo-4) assay in HEK293 cells
Assay type: cell-based
Description: Activation of the NR2A or NR2B subtype of NMDA receptor with glutamate as an agonist and glycine co-agonist on these cells results in calcium influx, which can be monitored with fluorescent indicator Fluo-4. For experiments, the cells were seeded onto poly-D-lysine-coated 96-well black plates with clear bottom (Corning) at a density of ˜50,000 cells/well. […] The cell plates were placed onto an FDSS Cell fluorescence reader (Hamamatsu). […]
readout-kind: pIC50
pIC50 is defined as minus the log10 of a concentration measured in mol/L.

Examples with answers:
{"compound": "Fc1ccc(C(F)(F)CN2CCC(Nc3ncnc4[nH]ccc34)CC2)cc1 [C-175^A′]", "pIC50": 7.66}
{"compound": "Cc1cnc(C(F)(F)CN2CCC(Nc3ncnc4[nH]ccc34)CC2)c(F)c1 [C-17^A′]", "pIC50": 7.36}
{"compound": "FCc1ccc(C(F)(F)CN2CCC(Nc3ncnc4[nH]ccc34)CC2)nc1 [C-7^A′]", "pIC50": 7.85}

Noted for Cc1ccc(C(F)(F)CN2CCC(Nc3ncnc4[nH]ccc34)CC2)cn1 [C-128^A′] : its pIC50 reads 7.05

For record Fc1cc(Cl)cnc1C(F)(F)CN1CCC(Nc2ncnc3[nH]ccc23)CC1 [C-16^A′] the listed pIC50 is 7.33

// field: pIC50; key: Cc1cnc(C(F)(F)CN2CCC(Nc3ncnc4[nH]ccc34)CC2)cn1 [C-230^A′] ; value = 7.06
